Test system: UACC-257
Experiment: NCI tumour cell line growth inhibition, 48 h
Calls of active or inactive are those of the source. Rule as the data show it: active = GI50 up to about 1.1 µM and inactive = higher.
Entry note: the call must match one of active, inactive

O=C1c2c(ccc3c2CCCC3)CC12Cc1ccc3c(c1C2=O)CCCC3 : inactive
CC1CC(=O)N(N(C)C)C(C#N)(C#N)C1(C#N)C#N (configuration not stated) : inactive
O=C(CC(=O)N1N=C(N(c2ccccc2)c2ccccc2)CC1c1ccccc1)Nc1cccc(Cl)c1 (configuration not stated) : inactive
C[Si](C)(C)OC1CC(=O)OC1n1cc(F)c(=O)[nH]c1=O (configuration not stated) : inactive
CCOP(=O)(OCC)c1cc2cc(O)ccc2oc1=O : inactive

Q. Call for entry SC1=NC2=C(CSC/C2=C\c2ccccc2)C(c2ccccc2)N1 (configuration not stated) :
A. inactive

Q. Call for entry COc1cc(-c2cn(S(=O)(=O)c3ccc(C)cc3)c3ccccc23)nc(-c2cn(S(=O)(=O)c3ccc(C)cc3)c3ccccc23)n1 :
A. inactive

Q. Call for entry C=C(CC)C[C@@H]1C[C@]2(C(=O)OC)c3[nH]c4ccccc4c3CCN2C1=O :
A. inactive

Q. Call for entry CNS(=O)(=O)NNS(=O)(=O)c1ccccc1 :
A. inactive

Q. Call for entry CC(=O)CSCc1ccccn1 :
A. inactive

Q. Call for entry CC(=O)c1csc2c1C(=O)c1ccccc1C2=O :
A. inactive
